# MEASUREMENT_NOTES: BHET released, HPLC; higher = more BHET released; extreme values may be limits of the assay
# APPLIED_CONDITIONS: PET substrate: aFilm; 60 °C; pH 9.5; 24 h
OBSERVATION_TYPE: BHET released (mM)
Respond numerically; units are mM and should not be typed.

GET /value?item= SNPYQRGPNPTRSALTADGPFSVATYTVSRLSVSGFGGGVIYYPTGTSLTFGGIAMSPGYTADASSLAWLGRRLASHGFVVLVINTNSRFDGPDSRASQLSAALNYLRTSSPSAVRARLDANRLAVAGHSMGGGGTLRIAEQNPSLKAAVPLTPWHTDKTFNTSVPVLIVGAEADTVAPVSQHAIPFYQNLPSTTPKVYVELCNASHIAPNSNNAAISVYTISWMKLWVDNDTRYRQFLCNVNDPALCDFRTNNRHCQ [LCC-ICCG] &field=BHET released returns 0.039

----------
# MEASUREMENT_NOTES: BHET released, HPLC; higher = more BHET released; extreme values may be limits of the assay
# APPLIED_CONDITIONS: PET substrate: aFilm; 70 °C; pH 8.5; 24 h
For each record, write down the corresponding BHET released.
Kindly format the answer as number then unit.

GET /value?item= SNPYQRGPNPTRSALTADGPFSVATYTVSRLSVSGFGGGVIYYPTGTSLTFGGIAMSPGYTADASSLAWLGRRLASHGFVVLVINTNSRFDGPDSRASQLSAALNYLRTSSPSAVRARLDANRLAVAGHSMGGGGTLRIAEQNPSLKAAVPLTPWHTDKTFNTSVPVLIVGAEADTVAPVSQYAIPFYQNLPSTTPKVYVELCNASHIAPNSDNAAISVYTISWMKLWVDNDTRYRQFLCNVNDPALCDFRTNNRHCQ [LCC-A2] &field=BHET released returns 0 mM

GET /value?item= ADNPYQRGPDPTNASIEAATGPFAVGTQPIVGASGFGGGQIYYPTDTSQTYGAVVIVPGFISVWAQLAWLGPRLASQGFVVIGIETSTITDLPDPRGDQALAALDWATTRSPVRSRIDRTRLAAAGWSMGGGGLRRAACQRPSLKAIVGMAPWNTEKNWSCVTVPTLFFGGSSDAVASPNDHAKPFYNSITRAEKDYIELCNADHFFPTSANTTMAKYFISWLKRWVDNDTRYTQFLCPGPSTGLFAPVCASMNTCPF [CaPETaseM9] &field=BHET released returns 0 mM

GET /value?item= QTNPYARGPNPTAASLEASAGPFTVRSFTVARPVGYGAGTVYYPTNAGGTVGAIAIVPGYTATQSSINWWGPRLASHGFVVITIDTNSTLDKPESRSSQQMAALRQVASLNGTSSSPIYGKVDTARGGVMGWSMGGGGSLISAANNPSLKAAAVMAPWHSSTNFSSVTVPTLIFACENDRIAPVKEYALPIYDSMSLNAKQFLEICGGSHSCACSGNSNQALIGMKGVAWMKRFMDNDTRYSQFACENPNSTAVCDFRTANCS [HotPETase] &field=BHET released returns 0 mM

----------
For each record, write down the corresponding MHET released.
# MEASUREMENT_NOTES: MHET released, HPLC; higher = more MHET released; extreme values may be limits of the assay
# APPLIED_CONDITIONS: PET substrate: cryPow; 60 °C; pH 5.5; 24 h
Respond numerically; units are mM and should not be typed.

GET /value?item= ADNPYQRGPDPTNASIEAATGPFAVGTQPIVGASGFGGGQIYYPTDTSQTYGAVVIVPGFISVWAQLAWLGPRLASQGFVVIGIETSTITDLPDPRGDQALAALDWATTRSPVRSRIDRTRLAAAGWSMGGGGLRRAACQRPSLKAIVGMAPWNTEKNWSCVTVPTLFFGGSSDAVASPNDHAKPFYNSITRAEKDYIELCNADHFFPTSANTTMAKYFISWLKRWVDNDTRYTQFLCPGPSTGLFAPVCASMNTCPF [CaPETaseM9] &field=MHET released returns 0.0852

GET /value?item= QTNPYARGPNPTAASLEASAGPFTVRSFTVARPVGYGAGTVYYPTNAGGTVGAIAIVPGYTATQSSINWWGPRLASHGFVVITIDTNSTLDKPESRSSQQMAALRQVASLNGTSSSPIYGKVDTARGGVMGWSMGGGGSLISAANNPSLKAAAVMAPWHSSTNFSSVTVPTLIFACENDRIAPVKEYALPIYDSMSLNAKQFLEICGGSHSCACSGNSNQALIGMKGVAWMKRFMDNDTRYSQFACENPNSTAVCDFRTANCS [HotPETase] &field=MHET released returns 0.43

GET /value?item= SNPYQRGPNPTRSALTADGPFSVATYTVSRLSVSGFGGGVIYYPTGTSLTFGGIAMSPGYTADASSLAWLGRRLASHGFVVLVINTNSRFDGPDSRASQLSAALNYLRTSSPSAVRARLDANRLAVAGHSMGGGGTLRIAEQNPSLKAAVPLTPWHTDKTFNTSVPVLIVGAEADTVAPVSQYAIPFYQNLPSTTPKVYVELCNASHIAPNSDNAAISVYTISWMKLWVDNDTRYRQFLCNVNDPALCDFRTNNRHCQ [LCC-A2] &field=MHET released returns 0.24
